- systemUnderTest: alcohol dehydrogenase (ADH) (Saccharomyces cerevisiae, UniProt P00330)
- Sequence (P00330 1-348): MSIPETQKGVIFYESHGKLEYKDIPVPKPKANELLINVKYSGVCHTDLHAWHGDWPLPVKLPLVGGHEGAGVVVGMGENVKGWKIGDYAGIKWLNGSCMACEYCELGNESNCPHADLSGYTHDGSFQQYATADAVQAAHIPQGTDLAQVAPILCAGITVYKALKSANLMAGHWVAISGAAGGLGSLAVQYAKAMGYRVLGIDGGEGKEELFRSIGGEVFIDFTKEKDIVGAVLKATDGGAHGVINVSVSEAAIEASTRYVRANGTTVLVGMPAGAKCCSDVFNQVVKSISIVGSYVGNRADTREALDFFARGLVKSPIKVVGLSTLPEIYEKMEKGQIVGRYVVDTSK
Kindly supply the reported IC50 values for the records listed here.
API: value field is a number in µM; no unit string.

Note to self: IC50 recorded for O=C1NC(=O)C(=Cc2ccc(-c3ccc(O)c(C(=O)O)c3)o2)S1 [Compound 5e] was 21

Note to self: IC50 recorded for O=C1NC(=S)SC1=Cc1ccc(-c2ccc(O)c(C(=O)O)c2)o1 [Compound 7e] was 3.4

* * *

endpointName: IC50

For the compound O=C1NC(=O)C(=Cc2ccc(-c3ccc(C(=O)O)cc3)o2)S1 , the measured IC50 on isopropylmalate dehydrogenase (IPMDH) (Escherichia coli) was > 200 µM

For the compound O=C1NC(=O)C(=Cc2ccc(-c3ccc(O)c(C(=O)O)c3)o2)S1 , the measured IC50 on isopropylmalate dehydrogenase (IPMDH) (Escherichia coli) was > 50 µM

* * *

- systemUnderTest: HMG CoA reductase (HMGCoAR)
- Sequence (P04035 1-888): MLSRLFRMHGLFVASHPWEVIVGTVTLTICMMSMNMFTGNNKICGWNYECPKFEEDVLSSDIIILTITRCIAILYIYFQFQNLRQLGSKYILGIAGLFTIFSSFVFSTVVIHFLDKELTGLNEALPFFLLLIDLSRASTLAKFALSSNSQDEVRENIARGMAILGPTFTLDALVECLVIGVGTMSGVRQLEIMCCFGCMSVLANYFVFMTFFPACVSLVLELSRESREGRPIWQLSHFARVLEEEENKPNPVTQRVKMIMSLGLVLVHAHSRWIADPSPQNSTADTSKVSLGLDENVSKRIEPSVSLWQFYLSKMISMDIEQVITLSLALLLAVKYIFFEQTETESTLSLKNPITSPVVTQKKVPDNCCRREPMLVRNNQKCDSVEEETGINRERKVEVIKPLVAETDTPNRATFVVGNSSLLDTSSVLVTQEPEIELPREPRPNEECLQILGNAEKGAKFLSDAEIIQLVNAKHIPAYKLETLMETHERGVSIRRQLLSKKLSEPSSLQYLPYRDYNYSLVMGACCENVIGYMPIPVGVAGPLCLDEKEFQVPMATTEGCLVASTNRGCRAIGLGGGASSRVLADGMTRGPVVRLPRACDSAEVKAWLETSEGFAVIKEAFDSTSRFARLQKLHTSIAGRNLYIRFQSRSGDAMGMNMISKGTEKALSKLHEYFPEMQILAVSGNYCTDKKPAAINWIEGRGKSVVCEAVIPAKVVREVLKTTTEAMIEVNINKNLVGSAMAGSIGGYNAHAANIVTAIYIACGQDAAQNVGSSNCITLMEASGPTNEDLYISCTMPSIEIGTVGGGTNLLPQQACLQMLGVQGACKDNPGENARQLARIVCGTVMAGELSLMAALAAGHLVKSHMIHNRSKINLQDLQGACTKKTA
endpointName: IC50 (nM)
API: value field is a number in nM; no unit string.

Note to self: IC50 recorded for O=C1NC(=S)SC1=Cc1ccc(-c2ccc(O)c(C(=O)O)c2)o1 was 143
